# study_system: tissue plasminogen activator (t-PA) (Homo sapiens, UniProt P00750)
# Construct: purchased American Diagnostics, Greenwich, Conn
# Sequence (P00750 36-562): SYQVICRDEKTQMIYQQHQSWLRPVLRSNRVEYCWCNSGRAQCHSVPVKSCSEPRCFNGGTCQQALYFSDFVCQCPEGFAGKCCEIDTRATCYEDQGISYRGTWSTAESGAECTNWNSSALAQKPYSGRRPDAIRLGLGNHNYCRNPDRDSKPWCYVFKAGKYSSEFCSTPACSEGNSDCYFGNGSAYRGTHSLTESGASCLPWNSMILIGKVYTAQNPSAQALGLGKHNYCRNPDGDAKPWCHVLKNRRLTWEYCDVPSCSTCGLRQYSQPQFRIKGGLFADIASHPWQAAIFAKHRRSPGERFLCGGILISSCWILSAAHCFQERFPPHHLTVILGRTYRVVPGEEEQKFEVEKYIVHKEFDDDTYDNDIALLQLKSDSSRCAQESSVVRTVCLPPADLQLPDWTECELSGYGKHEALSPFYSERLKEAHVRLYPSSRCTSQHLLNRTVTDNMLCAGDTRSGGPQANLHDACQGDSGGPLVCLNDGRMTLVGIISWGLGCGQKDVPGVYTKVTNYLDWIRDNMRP
# assay_comment: Serine protease inhibition, t-PA (chromogenic substrate), Kass
# Format: biochemical
# recorded_conditions: substrate H-D-Ile-Pro-Arg-p-nitroanilide
# Procedure: The assay is carried out by mixing 50 μl buffer (0.03M Tris, 0.15M NaCl, pH 7.4), 25 μl of human thrombin solution (purified human thrombin Enzyme Research Laboratories, South Bend, Ind.) at 8 NIH units/ml and 25 μl of test compound in a solvent (50% aqueous methanol (v:v)). Then 150 μl of an aqueous solution of the chromogenic substrate (at 0.25 mg/ml) are added and the rates of hydrolysis of the substrate are measured by monitoring the reactions at 405 nm for the release of p-nitroaniline. […]
Non-standard residues stand in square brackets, D forms with d. Residues, ends and D or L forms follow the SMILES beside them. dCha = N[C@H](CC1CCCCC1)C(=O)O
Lab note: class by Enzyme Kass, t-Pa, see label 0 = under 0.1 L/mol × 10^6, label 1 = from 0.1 L/mol × 10^6 up to 2 L/mol × 10^6, label 2 = 2 L/mol × 10^6 and over

# count of solved cases: 6
{"columns": ["compound", "study_system", "assigned_class"],
 "data": [
  ["CCCS(=O)(=O)N[C@H](Cc1ccccc1)C(=O)N1CCC[C@H]1C(=O)N[C@H](C=O)CCCNC(=N)N.Cl [Example 9, n-Pr-SO2 -D-Phe-Pro-Arg-H.HCl]", "tissue plasminogen activator (t-PA) (Homo sapiens, UniProt P00750)", "label 2"],
  ["Cl.NC(N)=NCCCC(C=O)NC(=O)C1CCCN1C(=O)C(CC1CCCCC1)NC(=O)c1ccc2ccccc2n1 (centres unmarked) [Example 6]", "tissue plasminogen activator (t-PA) (Homo sapiens, UniProt P00750)", "label 0"],
  ["Cl.NC(N)=NCCCC(C=O)NC(=O)C1CCCN1C(=O)C(Cc1ccccc1)NC(=O)c1ccc2ccccc2n1 (centres unmarked) [Example 2]", "tissue plasminogen activator (t-PA) (Homo sapiens, UniProt P00750)", "label 1"],
  ["Cl.N=C(N)NCCC[C@@H](C=O)NC(=O)[C@@H]1CCCN1C(=O)[C@@H](Cc1ccccc1)NS(=O)(=O)c1ccc(F)cc1F [Example 14, 2,4-F-PhSO2 -D-Phe-Pro-Arg-H-HCl]", "tissue plasminogen activator (t-PA) (Homo sapiens, UniProt P00750)", "label 2"],
  ["Cl.N=C(N)NCCC[C@@H](C=O)NC(=O)[C@@H]1CCCN1C(=O)[C@@H](Cc1ccccc1)NCC1CCCCC1 [Example 30, cyclohexyl-CH2 -D-phe-pro-Arg-H.HCl]", "tissue plasminogen activator (t-PA) (Homo sapiens, UniProt P00750)", "label 0"],
  ["Cl.N=C(N)NCCC[C@@H](C=O)NC(=O)[C@@H]1CCCN1C(=O)[C@@H](Cc1ccccc1)NC(=O)c1cccnc1 [Example 3, N-Nicotinoyl-D-Phe-Pro-Arg-H.HCl]", "tissue plasminogen activator (t-PA) (Homo sapiens, UniProt P00750)", "label 1"]
]}

Returns: class label. Input: CC(=O)N[C@H](CC1CCCCC1)C(=O)N1CCC[C@H]1C(=O)N[C@H](C=O)CCCNC(=N)N.Cl [Example 28, Ac-D-Cha-Pro-Arg-H.HCl] (Ac-[dCha]-Pro-Arg-aldehyde) label 0

Returns: class label. Input: Cl.N=C(N)NCCC[C@@H](C=O)NC(=O)[C@@H]1CCCN1C(=O)[C@@H](Cc1ccccc1)NS(=O)(=O)c1ccccc1 [Example 13, PhSO2 -D-Phe-Pro-Arg-H.HCl] label 2

Returns: class label. Input: CCOC(=O)N[C@H](CC1CCCCC1)C(=O)N1CCC[C@H]1C(=O)N[C@H](C=O)CCCN=C(N)N.Cl [Example 34, EtOCO-D-Cha-Pro-Arg-H.HCl] label 1

Returns: class label. Input: Cl.Cn1c(C(=O)NC(Cc2ccccc2)C(=O)N2CCCC2C(=O)NC(C=O)CCCN=C(N)N)cc2ccccc21 [Example 1, NMI-D-Phe-Pro-Arg-H.HCl] label 2

Returns: class label. Input: CC(=O)N[C@H](Cc1ccccc1)C(=O)N1CCC[C@H]1C(=O)N[C@H](C=O)CCCN=C(N)N.Cl [Example 23, Ac-D-Phe-Pro-Arg-H.HCl] label 1

---

# study_system: human thrombin (Homo sapiens)
# Construct: purified human thrombin Enzyme Research Laboratories, South Bend, Ind; purchased Enzyme Research Laboratories, South Bend, Ind
# assay_comment: Inhibition of amidase activity of thrombin (chromogenic substrate), Kass
# Assay type: biochemical
# recorded_conditions: substrate N-benzoyl-Phe-Val-Arg-p-nitroanilide, pH 7.4
Non-standard residues stand in square brackets, D forms with d. Residues, ends and D or L forms follow the SMILES beside them. dCha = N[C@H](CC1CCCCC1)C(=O)O
Parameter: Enzyme Kass, Human Thrombin. Scope: all listed entries.
Your answer is read as L/mol × 10^6, so omit the unit and give the number.

Here are 3 compounds together with their reported answers.
{"columns": ["compound", "Enzyme Kass, Human Thrombin, L/mol × 10^6"],
 "data": [
  ["Cl.N=C(N)NCCC[C@@H](C=O)NC(=O)[C@@H]1CCCN1C(=O)[C@@H](Cc1ccccc1)NC(=O)c1cccnc1 [Example 3, N-Nicotinoyl-D-Phe-Pro-Arg-H.HCl]", 58],
  ["Cl.N=C(N)NCCC[C@@H](C=O)NC(=O)[C@@H]1CCCN1C(=O)[C@@H](Cc1ccccc1)NCC1CCCCC1 [Example 30, cyclohexyl-CH2 -D-phe-pro-Arg-H.HCl]", 480],
  ["CCOC(=O)N[C@H](Cc1ccccc1)C(=O)N1CCC[C@H]1C(=O)N[C@H](C=O)CCCNC(=N)N.Cl [Example 33, EtOCO-D-Phe-Pro-Arg-H.HCl]", 170]
]}

Given Cl.N=C(N)NCCC[C@@H](C=O)NC(=O)[C@@H]1CCCN1C(=O)[C@@H](Cc1ccccc1)NC(=O)C1CCCCC1 [Example 27, cyclohexyl-CO-D-Phe-Pro-Arg-H.HCl] , respond with its Enzyme Kass, Human Thrombin. 20

Given CC(=O)N[C@H](CC1CCCCC1)C(=O)N1CCC[C@H]1C(=O)N[C@H](C=O)CCCNC(=N)N.Cl [Example 28, Ac-D-Cha-Pro-Arg-H.HCl] (Ac-[dCha]-Pro-Arg-aldehyde) , respond with its Enzyme Kass, Human Thrombin. 26

Given Cl.NC(N)=NCCCC(C=O)NC(=O)C1CCCN1C(=O)C(CC1CCCCC1)NC(=O)c1ccc2ccccc2n1 (stereo not drawn) [Example 6] , respond with its Enzyme Kass, Human Thrombin. 200

Given CCNC(=O)N[C@H](Cc1ccccc1)C(=O)N1CCC[C@H]1C(=O)N[C@H](C=O)CCCN=C(N)N.Cl [Example 32, EtNHCO-D-Phe-Pro-Arg-H.HCl] , respond with its Enzyme Kass, Human Thrombin. 25

Given COCC(=O)N[C@H](Cc1ccccc1)C(=O)N1CCC[C@H]1C(=O)N[C@H](C=O)CCCNC(=N)N.Cl [Example 24, CH3 OCH2 CO-D-Phe-Pro-Arg-H.HCl] , respond with its Enzyme Kass, Human Thrombin. 33

Given Cl.N=C(N)NCCC[C@@H](C=O)NC(=O)[C@@H]1CCCN1C(=O)[C@@H](Cc1ccccc1)NCC(=O)O [Example 35, HOOCCH2 -D-Phe-Pro-ArgH.HCl] , respond with its Enzyme Kass, Human Thrombin. 695

---

# assay_comment: Index of bioavailability (plasma TT AUC, p.o. vs i.v.)
# recorded_conditions: rats, adjusted for dose
Parameter: Index of Bioavailability, % Relative Activity. Scope: all listed entries.
Your answer is read as %, so omit the unit and give the number.

Here are 5 compounds together with their reported answers.
{"columns": ["compound", "endpoint_result"],
 "data": [
  ["Cl.N=C(N)NCCC[C@@H](C=O)NC(=O)[C@@H]1CCCN1C(=O)[C@@H](Cc1ccccc1)NS(=O)(=O)c1ccccc1 [Example 13, PhSO2 -D-Phe-Pro-Arg-H.HCl]", 3],
  ["Cl.Cn1c(C(=O)NC(Cc2ccccc2)C(=O)N2CCCC2C(=O)NC(C=O)CCCN=C(N)N)cc2ccccc21 [Example 1, NMI-D-Phe-Pro-Arg-H.HCl]", 2],
  ["CS(=O)(=O)N[C@H](Cc1ccccc1)C(=O)N1CCC[C@H]1C(=O)N[C@H](C=O)CCCNC(=N)N.Cl [Example 7, MeSO2 -D-Phe-Pro-Arg-H.HCl]", 27],
  ["CCS(=O)(=O)N[C@H](Cc1ccccc1)C(=O)N1CCC[C@H]1C(=O)N[C@H](C=O)CCCNC(=N)N.Cl [Example 8, EtSO2 -D-Phe-Pro-Arg-H-HCl]", 31],
  ["CCCS(=O)(=O)N[C@H](Cc1ccccc1)C(=O)N1CCC[C@H]1C(=O)N[C@H](C=O)CCCNC(=N)N.Cl [Example 9, n-Pr-SO2 -D-Phe-Pro-Arg-H.HCl]", 14]
]}

Here's the next entry for you.
Given Cl.NC(N)=NCCCC(C=O)NC(=O)C1CCCN1C(=O)C(Cc1ccccc1)NC(=O)c1ccc2ccccc2n1 (stereo not drawn) , respond with its Index of Bioavailability, % Relative Activity. 1
